- target_system: FAAH (Mus musculus)
- Construct: Proteomes (mouse brain membrane fraction or cell lysates); from tissue; host or cells: mouse brain membrane fraction (or unspecified cell lysates)
- Sequence (O08914 whole entry): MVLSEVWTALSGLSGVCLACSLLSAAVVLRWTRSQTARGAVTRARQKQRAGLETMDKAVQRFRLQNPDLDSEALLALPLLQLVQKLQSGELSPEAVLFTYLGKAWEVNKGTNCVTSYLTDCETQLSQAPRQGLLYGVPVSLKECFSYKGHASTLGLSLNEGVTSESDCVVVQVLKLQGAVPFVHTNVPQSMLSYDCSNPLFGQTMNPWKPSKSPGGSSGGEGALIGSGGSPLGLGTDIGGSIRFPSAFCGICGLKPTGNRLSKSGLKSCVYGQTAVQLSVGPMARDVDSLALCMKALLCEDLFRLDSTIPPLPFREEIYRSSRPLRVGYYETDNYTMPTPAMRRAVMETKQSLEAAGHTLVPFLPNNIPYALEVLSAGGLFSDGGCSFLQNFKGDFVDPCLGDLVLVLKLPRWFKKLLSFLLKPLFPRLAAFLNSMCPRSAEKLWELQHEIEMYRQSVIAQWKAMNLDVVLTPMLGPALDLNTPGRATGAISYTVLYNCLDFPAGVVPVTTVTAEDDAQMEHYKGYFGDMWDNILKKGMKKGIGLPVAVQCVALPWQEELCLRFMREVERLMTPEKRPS
- assay_details: In vitro competitive activity-based protein profiling (mouse), FAAH
- Format: biochemical
- condition_info: 1 μM, mouse proteome, in vitro
Could you please report measured inhibition at 1 µM for the items listed next?

Task: Lab note: record inhibition at 1 µM of O=C(OC(C(F)(F)F)C(F)(F)F)N1CCN(Cc2c(N3C4CCC3COC4)cccc2C(F)(F)F)CC1 tested on FAAH (Mus musculus).
Result: < 25%

Task: Lab note: record inhibition at 1 µM of CC(=O)N[C@@H]1CCN(Cc2cccc(CN3CCN(C(=O)OC(C(F)(F)F)C(F)(F)F)CC3)c2C)C1 tested on FAAH (Mus musculus).
Result: < 25%

Task: Lab note: record inhibition at 1 µM of CS(=O)(=O)N[C@@H]1CCN(c2cc(Cl)ccc2CN2CCN(C(=O)OC(C(F)(F)F)C(F)(F)F)CC2)C1 tested on FAAH (Mus musculus).
Result: < 25%

Task: Lab note: record inhibition at 1 µM of O=C(O)C1CN(c2cc(CN3CCN(C(=O)OC(C(F)(F)F)C(F)(F)F)CC3)ccc2C(F)(F)F)CCO1 (stereo not shown) tested on FAAH (Mus musculus).
Result: < 25%

Task: Lab note: record inhibition at 1 µM of O=C(OC(C(F)(F)F)C(F)(F)F)N1CCN(Cc2ccc(Cl)cc2N2CC[C@@H](N3CCCS3(=O)=O)C2)CC1 tested on FAAH (Mus musculus).
Result: < 25%

Task: Lab note: record inhibition at 1 µM of O=C(OC(C(F)(F)F)C(F)(F)F)N1CCN(Cc2ccc(C(F)(F)F)cc2N2CCC3(CCCN3C3CC3)CC2)CC1 tested on FAAH (Mus musculus).
Result: < 25%

Task: Lab note: record inhibition at 1 µM of O=C(OC(C(F)(F)F)C(F)(F)F)N1CCN(Cc2ccc(CN3CCOCC3)cc2OC(F)(F)F)CC1 tested on FAAH (Mus musculus).
Result: < 25%

----------
- target_system: ABHD6 (Mus musculus)
- Construct: Proteomes (mouse brain membrane fraction or cell lysates); from tissue; host or cells: mouse brain membrane fraction (or unspecified cell lysates)
- Sequence (Q8R2Y0 whole entry): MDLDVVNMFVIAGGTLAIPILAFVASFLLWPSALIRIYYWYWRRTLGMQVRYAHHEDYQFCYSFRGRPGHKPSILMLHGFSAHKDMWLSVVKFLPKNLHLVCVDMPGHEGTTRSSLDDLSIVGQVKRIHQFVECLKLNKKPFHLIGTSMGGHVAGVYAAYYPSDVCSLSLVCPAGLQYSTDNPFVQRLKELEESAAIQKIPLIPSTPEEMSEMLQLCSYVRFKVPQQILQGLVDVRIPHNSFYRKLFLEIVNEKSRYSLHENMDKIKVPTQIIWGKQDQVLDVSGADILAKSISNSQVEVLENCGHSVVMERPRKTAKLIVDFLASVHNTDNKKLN
- assay_details: In vitro competitive activity-based protein profiling (mouse), ABHD6
- Assay type: biochemical
- condition_info: 1 μM, mouse proteome, in vitro; read-out: % Inhibition at 1 μM ABHD6
Could you please report measured inhibition at 1 µM for the items listed next?

Task: Lab note: record inhibition at 1 µM of CS(=O)(=O)N[C@@H]1CCN(c2cc(C(F)(F)F)ccc2CN2CCN(C(=O)OC(C(F)(F)F)C(F)(F)F)CC2)C1 tested on ABHD6 (Mus musculus).
Result: < 25%

Task: Lab note: record inhibition at 1 µM of O=C(OC(C(F)(F)F)C(F)(F)F)N1CCN(Cc2c(N3CC4CCC(C3)O4)cccc2C(F)(F)F)CC1 tested on ABHD6 (Mus musculus).
Result: < 25%

Task: Lab note: record inhibition at 1 µM of O=C(OC(C(F)(F)F)C(F)(F)F)N1CCN(Cc2cc(N3CCCC3CO)cc(C(F)(F)F)c2)CC1 (centres unmarked) tested on ABHD6 (Mus musculus).
Result: 25 to 75%

Task: Lab note: record inhibition at 1 µM of Cc1c(CN2CCCC2)cccc1CN1CCN(C(=O)OC(C(F)(F)F)C(F)(F)F)CC1 tested on ABHD6 (Mus musculus).
Result: > 75%

Task: Lab note: record inhibition at 1 µM of O=C(OC(C(F)(F)F)C(F)(F)F)N1CCN(Cc2ccc(C(F)(F)F)cc2N2CCCC2CO)CC1 (centres unmarked) tested on ABHD6 (Mus musculus).
Result: < 25%

Task: Lab note: record inhibition at 1 µM of O=C(OC(C(F)(F)F)C(F)(F)F)N1CCN(Cc2cc(Cl)cc(CN3CCCC3)c2)CC1 tested on ABHD6 (Mus musculus).
Result: < 25%

Task: Lab note: record inhibition at 1 µM of Cc1c(CN2CCOCC2)cccc1CN1CCN(C(=O)OC(C(F)(F)F)C(F)(F)F)CC1 tested on ABHD6 (Mus musculus).
Result: > 75%

Task: Lab note: record inhibition at 1 µM of NC(=O)C1CCN(c2cc(Cl)ccc2CN2CCN(C(=O)OC(C(F)(F)F)C(F)(F)F)CC2)CC1 tested on ABHD6 (Mus musculus).
Result: > 75%

Task: Lab note: record inhibition at 1 µM of O=C(OC(C(F)(F)F)C(F)(F)F)N1CCN(Cc2ccc(C(F)(F)F)c(N3CCC(CO)CC3)c2)CC1 tested on ABHD6 (Mus musculus).
Result: > 75%

Task: Lab note: record inhibition at 1 µM of O=C(OC(C(F)(F)F)C(F)(F)F)N1CCN(Cc2ccc(C(F)(F)F)cc2N2CCC(CO)C2)CC1 (centres unmarked) tested on ABHD6 (Mus musculus).
Result: > 75%

Task: Lab note: record inhibition at 1 µM of Cc1c(CN2CCN(C(=O)OC(C(F)(F)F)C(F)(F)F)CC2)cccc1CN1CCCC[C@H]1C tested on ABHD6 (Mus musculus).
Result: > 75%

Task: Lab note: record inhibition at 1 µM of O=C(OC(C(F)(F)F)C(F)(F)F)N1CCN(Cc2cc(N3CCC(CO)CC3)cc(C(F)(F)F)c2)CC1 tested on ABHD6 (Mus musculus).
Result: > 75%

Task: Lab note: record inhibition at 1 µM of CCOC(=O)C1CCCN1c1cc(CN2CCN(C(=O)OC(C(F)(F)F)C(F)(F)F)CC2)cc(C(F)(F)F)c1 (centres unmarked) tested on ABHD6 (Mus musculus).
Result: > 75%

Task: Lab note: record inhibition at 1 µM of CC(=O)N[C@H]1CCN(Cc2cccc(CN3CCN(C(=O)OC(C(F)(F)F)C(F)(F)F)CC3)c2C)C1 tested on ABHD6 (Mus musculus).
Result: > 75%

Task: Lab note: record inhibition at 1 µM of O=C(O)C1CCN(c2cc(CN3CCN(C(=O)OC(C(F)(F)F)C(F)(F)F)CC3)ccc2C(F)(F)F)C1 (centres unmarked) tested on ABHD6 (Mus musculus).
Result: 25 to 75%

Task: Lab note: record inhibition at 1 µM of O=C(O)C1CCN(c2cc(CN3CCN(C(=O)OC(C(F)(F)F)C(F)(F)F)CC3)ccc2C(F)(F)F)CC1 tested on ABHD6 (Mus musculus).
Result: > 75%

Task: Lab note: record inhibition at 1 µM of CN(C)C(=O)C1CCN(c2cc(C(F)(F)F)ccc2CN2CCN(C(=O)OC(C(F)(F)F)C(F)(F)F)CC2)CC1 tested on ABHD6 (Mus musculus).
Result: < 25%

Task: Lab note: record inhibition at 1 µM of O=C(O)C1CCN(c2cc(CN3CCN(C(=O)OC(C(F)(F)F)C(F)(F)F)CC3)cc(C(F)(F)F)c2)CC1 tested on ABHD6 (Mus musculus).
Result: > 75%

Task: Lab note: record inhibition at 1 µM of O=C(OC(C(F)(F)F)C(F)(F)F)N1CCN(Cc2cccc(OC(F)(F)F)c2N2CCC(N3CCCC3)CC2)CC1 tested on ABHD6 (Mus musculus).
Result: < 25%

Task: Lab note: record inhibition at 1 µM of O=C(OC(C(F)(F)F)C(F)(F)F)N1CCN(Cc2cccc(Cl)c2N2CC3CCC(C2)O3)CC1 tested on ABHD6 (Mus musculus).
Result: < 25%

Task: Lab note: record inhibition at 1 µM of O=C(OC(C(F)(F)F)C(F)(F)F)N1CCN(Cc2ccc(Cl)cc2N2CCC(C(=O)N3CCCC3)CC2)CC1 tested on ABHD6 (Mus musculus).
Result: < 25%

Task: Lab note: record inhibition at 1 µM of O=C(OC(C(F)(F)F)C(F)(F)F)N1CCN(Cc2ccc(C(F)(F)F)cc2N2CC[C@H](CF)C2)CC1 tested on ABHD6 (Mus musculus).
Result: < 25%

Task: Lab note: record inhibition at 1 µM of COc1c(CN2CCN(C(C)=O)CC2)cccc1CN1CCN(C(=O)OC(C(F)(F)F)C(F)(F)F)CC1 tested on ABHD6 (Mus musculus).
Result: > 75%

Task: Lab note: record inhibition at 1 µM of O=C(OC(C(F)(F)F)C(F)(F)F)N1CCN(Cc2ccc(Cl)cc2N2CCC3(CCCN3C3CC3)CC2)CC1 tested on ABHD6 (Mus musculus).
Result: 25 to 75%

Task: Lab note: record inhibition at 1 µM of Cc1c(CN2CCN(C(=O)OC(C(F)(F)F)C(F)(F)F)CC2)cccc1CN1CCCC[C@@H]1C tested on ABHD6 (Mus musculus).
Result: > 75%

Task: Lab note: record inhibition at 1 µM of O=C(OC(C(F)(F)F)C(F)(F)F)N1CCN(Cc2ccc(N3CC4CCC(C3)O4)cc2F)CC1 tested on ABHD6 (Mus musculus).
Result: 25 to 75%

Task: Lab note: record inhibition at 1 µM of CS(=O)(=O)N[C@H]1CCN(c2cc(C(F)(F)F)ccc2CN2CCN(C(=O)OC(C(F)(F)F)C(F)(F)F)CC2)C1 tested on ABHD6 (Mus musculus).
Result: < 25%

Task: Lab note: record inhibition at 1 µM of O=C(OC(C(F)(F)F)C(F)(F)F)N1CCN(Cc2ccc(CN3CCOCC3)cc2OC(F)(F)F)CC1 tested on ABHD6 (Mus musculus).
Result: < 25%

Task: Lab note: record inhibition at 1 µM of CN(C)C(=O)C1CCN(c2cc(Cl)ccc2CN2CCN(C(=O)OC(C(F)(F)F)C(F)(F)F)CC2)CC1 tested on ABHD6 (Mus musculus).
Result: < 25%

Data provenance is patent US9771341B2.
